- PROTOCOL_TEXT: chemical genetic growth profiling, strain panel (AID 1159580);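 also: tested at 20 µM; growth read once vehicle control cultures reached saturation at 30 °C; 1 = growth at the plate median or of vehicle wells; lower values mean less growth of the strain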
- CONDITION: S. cerevisiae deletion strains, growth OD, locus YDL214C, strain PRR2, stronger effect = lower value
Out of some 5,500 compounds screened, about 2,000 (36%) were called active. Not shown: some 18% with an inconclusive outcome. The list shows a part of the results.
Can you tell me normalized growth for the items I'm about to list?

> print(dat)
                            molecule       meas.value
1  COc1ccc(/C=C2/C(=O)Nc3ccccc32)cc1  0.84 (inactive)

Each molecule below has a recorded value; state its normalized growth.
1. Cc1ccc(NNC(=O)c2cccs2)cc1Cl
2. Oc1c(Br)cc(Br)cc1C=Nc1ccc(Sc2ccccc2)nc1Sc1ccccc1
3. O=C1Nc2ccccc2/C1=C\c1ccc(Cl)cc1
4. O=C1/C(=C/c2ccccn2)CCc2ccccc21
5. OC1(C(F)(F)F)CC(c2ccc3ccccc3c2)=NN1 (configuration not stated)

Response:
1. 0.964 (inactive)
2. 0.331 (active)
3. 0.801 (inactive)
4. 0.927 (inactive)
5. 0.224 (active)

Report normalized growth for every entry below.
1. Oc1c(Br)cc(Br)cc1/C=N\n1cnnc1
2. O=C1Nc2ccccc2/C1=C\c1c(Cl)cccc1Cl
3. Cc1ccc(C)n1-c1ccc(/C=C2/C(=O)Nc3ccccc32)cc1
4. Cc1cc(Cl)ccc1NNC(=O)c1sccc1Cl
5. O=C1Nc2ccccc2/C1=C\c1cccc([N+](=O)[O-])c1
6. Oc1c(Br)cc(Br)cc1C=Nc1ccccn1

Response:
["0.588 (active)", "0.951 (inactive)", "0.91 (inactive)", "0.869 (inactive)", "0.983 (inactive)", "0.221 (active)"]

###

- PROTOCOL_TEXT: chemical genetic growth profiling, strain panel (AID 1159580);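 also: tested at 20 µM; growth read once vehicle control cultures reached saturation at 30 °C; 1 = growth at the plate median or of vehicle wells; lower values mean less growth of the strain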
- CONDITION: S. cerevisiae deletion strains, growth OD, locus YDR150W, strain NUM1, stronger effect = lower value
The campaign covered roughly 5,500 compounds. About 2,000 (36%) were called active. Roughly 18% stayed inconclusive and do not appear here. The list shows a part of the results.
RECORDED_ENDPOINT: normalized growth
Numbers only.

COMPOUND	RECORDED_ENDPOINT	MEAS_VALUE
O=C(O)C1=C[C@@H](O)[C@@H](O)[C@H](O)C1	normalized growth	1.02
CCCCCCCCCCCCCCCC(=O)OC(CC(=O)O)C[N+](C)(C)C (configuration not stated)	normalized growth	0.56
Cc1ccc(-c2csc(-c3ccc(Oc4ccc(C(F)(F)F)cn4)cc3)n2)c(C)c1	normalized growth	1.01

Could you report normalized growth for every entry in the following list?
1. CN1C[C@H](C(=O)N[C@]2(C)O[C@@]3(O)[C@@H]4CCCN4C(=O)[C@H](Cc4ccccc4)N3C2=O)C[C@@H]2c3cccc4[nH]cc(c34)C[C@H]21
2. O=S(=O)(Oc1cc(Cl)cc(Cl)c1)c1cccc(S(=O)(=O)Oc2cc(Cl)cc(Cl)c2)c1
3. CCCCCCCCCCCC1=C(O)C(=O)C=C(O)C1=O
4. ON=C(c1cccs1)c1cccs1
5. CC1CC[C@@]2(OC1)O[C@H]1CC3C4CC[C@@H]5CC(=O)CC[C@]5(C)C4CC[C@]3(C)[C@H]1[C@@H]2C (some centres not stated)

Response:
[1, 1, 0.673, 0.921, 1]

Respectfully, I request normalized growth for each entry included below.
1. CCOCN(C(=O)CCl)c1c(C)cccc1CC
2. NC(=S)NCCCC(N)C(=O)O (configuration not stated)
3. C[N+](C)(C)CC(O)CC(=O)O (configuration not stated)

Response:
0.954
1.01
1.01

Please report normalized growth for every entry that follows.
1. C=C1SC(Nc2cccc(C(F)(F)F)c2)=NC12CCCCC2
2. COC(=O)CSc1nc2ccc(Cl)cc2s1
3. CCCC(C)(COC(N)=O)COC(=O)NC(C)C (configuration not stated)

Response:
[0.987, 1.02, 0.983]

For every item in the list below, what is its measured normalized growth?
1. COc1ccc2c(c1C(C)C)CCC1C(C)(C)C(=O)CCC21C (configuration not stated)
2. C/C(=N/NC(=S)Nc1ccc(C(C)C)cc1)c1ccco1
3. CCCCCCCCCCCCCCCCCC(=O)OC(CC(=O)O)C[N+](C)(C)C (configuration not stated)
4. O=C(O)Cc1cnc[nH]1
5. NC(=O)NCCCC(N)C(=O)O (configuration not stated)
6. CNC(=O)Oc1cccc2c1OC(C)(C)O2

Response:
1. 0.96
2. 0.805
3. 0.583
4. 1.04
5. 1.02
6. 1.02

# batch: return normalized growth for each of the 5 compounds below
1. COc1cc2c(cc1O)CC[C@@H]1[C@@H]2CC[C@]2(C)[C@@H](O)CC[C@@H]12
2. CC(C)c1c(O)c(-c2cc3c(c(C(C)C)c2O)CCC2C(C)(C)CCC[C@]32C)cc2c1CCC1C(C)(C)CCC[C@]21C (some centres not stated)
3. COc1ccccc1NC(=O)NCCSCc1ccccc1Cl
4. COc1ccc2c(c1)CCC1C2CC[C@@]2(C)C1CC[C@@H]2NCCCCCCN1C(=O)C=CC1=O (some centres not stated)
5. N#Cc1ccc(-c2csc(-c3ccc(Oc4ccc(C(F)(F)F)cn4)cc3)n2)cc1

Response:
[0.964, 1.02, 0.968, 0.976, 1.01]

Hello, I would appreciate it if you could give normalized growth for each entry below.
1. CC1CCC2(OC1)OC1CC3C4CC[C@H]5C[C@@H](O)CC[C@]5(C)C4CC(=O)[C@]3(C)C1C2C (some centres not stated)
2. O=c1c(O)c(-c2cc(O)c(O)c(O)c2)oc2cc(O)cc(O)c12

Response:
1. 1.01
2. 1.02

Your task in this section: give normalized growth for each listed record.
1. Cc1cc(I)c(C)cc1I
2. FC(F)(F)c1ccc(Cl)c(NC(=S)NN=C2CCCCCC2)c1
3. COc1cc(OC)c2c(=O)c(OC)c(-c3ccc(OC)c(OC)c3)oc2c1
4. C[C@]12CCC3c4ccc(O)cc4CCC3C1C[C@@H](O)[C@@H]2O (some centres not stated)
5. Cn1[nH]c(=O)cc1C(=O)NN
6. CN1CC(C(=O)NC2(C)OC3(O)C4CCCN4C(=O)C(Cc4ccccc4)N3C2=O)CC2c3cccc4[nH]cc(c34)CC21 (configuration not stated)

Response:
1.04
1.04
0.998
0.989
1.01
0.99

Hi, could you look up normalized growth for each item in my list?
1. CCC1(O)CC2CN(CCc3c([nH]c4ccccc34)[C@@](C(=O)OC)(c3cc4c(cc3OC)N(C=O)C3[C@]45CCN4CC=C[C@@](CC)([C@@H](OC(C)=O)[C@]3(O)C(=O)OC)[C@H]45)C2)C1 (some centres not stated)
2. COC(=O)CSc1ncnc2c(C)csc12
3. CCc1cccc(CC)c1N(COC)C(=O)CCl
4. COc1ccc2c(c1)CCC1C2CCC2(C)C1C[C@@H](O)C2O (some centres not stated)
5. COc1ccc2c(c1)CCC1C2CC[C@@]2(C)C1CC[C@@H]2O (some centres not stated)
6. Brc1ccc(-c2ccn[nH]2)s1
7. CC1CC[C@@]2(OC1)O[C@H]1CC3C4CC[C@@H]5C[C@@H](O)CC[C@]5(C)C4CC[C@]3(C)[C@H]1[C@@H]2C (some centres not stated)
8. CO[C@@]1(NC(=O)C(C(=O)O)c2ccc(O)cc2)C(=O)N2C(C(=O)O)=C(CSc3nnnn3C)CO[C@@H]21 (some centres not stated)

Response:
[0.999, 0.948, 0.995, 1.01, 0.944, 1.02, 1.03, 1.02]

Query: Requested read-out: normalized growth. Entry: CSc1nc(N)c2ncn([C@@H]3O[C@H](COP(=O)(O)OP(=O)(O)OP(=O)(O)O)[C@H](O)C3O)c2n1 (some centres not stated)
Response: 1.03
